# ELISA 1hr binding values compiled below
- Assayed target: unlabeled human VEGF (ELISA coat) (human, UniProt P15692-4 27-191, limits assumed)
- Sequence (P15692 other isoform, or with tags, fused parts or gaps limits assumed): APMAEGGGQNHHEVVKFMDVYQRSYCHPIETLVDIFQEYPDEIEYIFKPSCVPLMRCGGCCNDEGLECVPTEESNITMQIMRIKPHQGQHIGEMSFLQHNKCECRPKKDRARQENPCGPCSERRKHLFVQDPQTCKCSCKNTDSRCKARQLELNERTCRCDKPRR
- Assay procedure: ELISA 1 hr, EC50 WT/EC50 mutant
Reported endpoint: ELISA 1hr binding (fold)

S100a Q (anti-VEGF IgG) (antibody, V domains shown, copies: 2 + 2) VH: EVQLVESGGGLVQPGGSLRLSCAASGYTFTNYGMNWVRQAPGKGLEWVGWINTYTGEPTYAADFKRRFTFSLDTSKSTAYLQMNSLRAEDTAVYYCAKYPHYYGQSHWYFDVWGQGTLVTVSS VL: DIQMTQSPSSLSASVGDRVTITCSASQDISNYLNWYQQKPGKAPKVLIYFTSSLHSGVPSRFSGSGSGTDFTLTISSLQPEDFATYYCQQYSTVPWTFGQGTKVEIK = 3.7
N31 Y (anti-VEGF IgG) (antibody, V domains shown, copies: 2 + 2) VH: EVQLVESGGGLVQPGGSLRLSCAASGYTFTYYGMNWVRQAPGKGLEWVGWINTYTGEPTYAADFKRRFTFSLDTSKSTAYLQMNSLRAEDTAVYYCAKYPHYYGSSHWYFDVWGQGTLVTVSS VL: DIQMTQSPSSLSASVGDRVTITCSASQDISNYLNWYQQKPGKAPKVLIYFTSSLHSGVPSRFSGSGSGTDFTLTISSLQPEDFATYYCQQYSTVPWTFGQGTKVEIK = 3
95 (antibody, human IgG1, V domains shown) VH: EVQLVESGGGLVQPGGSLRLSCAASGYTFTNYGMNWVRQAPGKGLEWVGWINTYTGEPTYAADFKRRFTFSLDTSKSTAYLQMNSLRAEDTAVYYCAKYPDYYGSSHWYFDVWGQGTLVTVSS VL: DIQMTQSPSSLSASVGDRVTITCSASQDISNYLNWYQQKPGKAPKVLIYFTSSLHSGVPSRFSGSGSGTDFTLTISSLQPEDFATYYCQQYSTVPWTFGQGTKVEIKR = 4.5
